Reference source: patent US20260056186A1

Emax by entry:
- target_or_test_system: BAFF (PeproTech, Cat: 310-13) (UniProt Q9Y275 134-285)
- Sequence (Q9Y275 134-285 limits assumed): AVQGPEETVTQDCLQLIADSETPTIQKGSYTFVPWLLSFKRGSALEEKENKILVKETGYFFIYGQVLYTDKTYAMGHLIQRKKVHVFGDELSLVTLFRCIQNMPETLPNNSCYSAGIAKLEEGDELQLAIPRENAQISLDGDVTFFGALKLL
- method_description: ELISA, BAFF coated at 1 ug/mL, anti-human Fc-HRP, OD450

B575702 (Fc fusion, TACI-BCMA fusion protein; also called BCMA-ECD-TACI-d2-Fc) MLQMAGQCSQNEYFDSLLHACIPCQLRCSSNTPPLTCQRYCNASVTNSVKGTNALSCRKEQGKFYDHLLRDCISCASICGQHPKQCAYFCENKLRSPGDKTHTCPPCPAPEAEGAPSVFLFPPKPKDTLMISRTPEVTCVVVDVSHEDPEVKFNWYVDGVEVHNAKTKPREEQYNSTYRVVSVLTVLHQDWLNGKEYKCKVSNKALPSSIEKTISKAKGQPREPQVYTLPPSRDELTKNQVSLTCLVKGFYPSDIAVEWESNGQPENNYKTTPPVLDSDGSFFLYSKLTVDKSRWQQGNVFSCSVMHEALHNHYTQKSLSLSPGK; 2.24 nM (as printed)

What Emax value was documented for this binder, B575704 (Fc fusion, TACI-BCMA fusion protein; also called BCMA-ECD-TACI-T2-Fc) MLQMAGQCSQNEYFDSLLHACIPCQLRCSSNTPPLTCQRYCNASVTNSVKGTNASRVDQEERFPQGLWTGVAMRSCPEEQYWDPLLGTCMSCKTICNHQSQRTCAAFCRSLSCRKEQGKFYDHLLRDCISCASICGQHPKQCAYFCENKLRSPVNLPPELDKTHTCPPCPAPEAEGAPSVFLFPPKPKDTLMISRTPEVTCVVVDVSHEDPEVKFNWYVDGVEVHNAKTKPREEQYNSTYRVVSVLTVLHQDWLNGKEYKCKVSNKALPSSIEKTISKAKGQPREPQVYTLPPSRDELTKNQVSLTCLVKGFYPSDIAVEWESNGQPENNYKTTPPVLDSDGSFFLYSKLTVDKSRWQQGNVFSCSVMHEALHNHYTQKSLSLSPGK ?
2.29 nM (as printed)

What Emax value was documented for this binder, B575703 (Fc fusion, TACI-BCMA fusion protein; also called TACI-T2-BCMA-ECD-Fc) SRVDQEERFPQGLWTGVAMRSCPEEQYWDPLLGTCMSCKTICNHQSQRTCAAFCRSLSCRKEQGKFYDHLLRDCISCASICGQHPKQCAYFCENKLRSPVNLPPELMLQMAGQCSQNEYFDSLLHACIPCQLRCSSNTPPLTCQRYCNASVTNSVKGTNADKTHTCPPCPAPEAEGAPSVFLFPPKPKDTLMISRTPEVTCVVVDVSHEDPEVKFNWYVDGVEVHNAKTKPREEQYNSTYRVVSVLTVLHQDWLNGKEYKCKVSNKALPSSIEKTISKAKGQPREPQVYTLPPSRDELTKNQVSLTCLVKGFYPSDIAVEWESNGQPENNYKTTPPVLDSDGSFFLYSKLTVDKSRWQQGNVFSCSVMHEALHNHYTQKSLSLSPGK ?
2.43 nM (as printed)

What Emax value was documented for this binder, Telitacicept (RCT-18) (Fc fusion, Positive control TACI-Fc; also called RC18) SRVDQEERFPQGLWTGVAMRSCPEEQYWDPLLGTCMSCKTICNHQSQRTCAAFCRSLSCRKEQGKFYDHLLRDCISCASICGQHPKQCAYFCENKLRSPVNLPPELDKTHTCPPCPAPEAEGAPSVFLFPPKPKDTLMISRTPEVTCVVVDVSHEDPEVKFNWYVDGVEVHNAKTKPREEQYNSTYRVVSVLTVLHQDWLNGKEYKCKVSNKALPSSIEKTISKAKGQPREPQVYTLPPSRDELTKNQVSLTCLVKGFYPSDIAVEWESNGQPENNYKTTPPVLDSDGSFFLYSKLTVDKSRWQQGNVFSCSVMHEALHNHYTQKSLSLSPGK ?
2.28 nM (as printed)
